Biological target: CD276, Q5ZPR3
Sequence (Q5ZPR3 whole entry): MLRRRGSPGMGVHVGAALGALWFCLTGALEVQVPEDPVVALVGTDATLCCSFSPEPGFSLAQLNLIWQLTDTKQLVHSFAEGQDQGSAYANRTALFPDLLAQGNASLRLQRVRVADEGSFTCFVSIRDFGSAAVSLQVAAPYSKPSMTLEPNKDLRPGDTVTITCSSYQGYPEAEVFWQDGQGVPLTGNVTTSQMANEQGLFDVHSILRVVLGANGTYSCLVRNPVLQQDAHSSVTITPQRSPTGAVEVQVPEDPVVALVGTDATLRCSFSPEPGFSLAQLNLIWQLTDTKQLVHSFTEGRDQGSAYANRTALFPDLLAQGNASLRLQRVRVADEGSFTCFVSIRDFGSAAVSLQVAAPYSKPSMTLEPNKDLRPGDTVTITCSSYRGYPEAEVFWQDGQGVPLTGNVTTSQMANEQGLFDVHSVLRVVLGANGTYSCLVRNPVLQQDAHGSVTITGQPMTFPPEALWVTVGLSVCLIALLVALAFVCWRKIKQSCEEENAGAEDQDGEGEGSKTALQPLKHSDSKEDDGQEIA
measured-property: binding in a display sort

binder: design_487_778f5c6d-c470-43b8-8f82-464af6177e08_2068_dldesign_0_cycle1_af2pred (protein) AAAEAAAAAEAQEKAKEAAEKAVENIDDPELAEKYAEEAGKALLAGADLEEVLTYANSLNPEVARLIARAYARLGAAAVRA
value-observed: not found (inactive)

binder: design_622_fcc41892-afde-4fb9-b6e8-b664fffd6a75_1477_dldesign_0_cycle1_af2pred (protein) GEAVQTAVDALKLLSEERRRAAALVAADPENAEARAILERLEESFRAVARAAANPATAQEVGEAGIAEAERARERLAALA
value-observed: not found (inactive)

binder: design_616_e8336982-fa4d-4d7c-b06f-9007953e1994_1969_dldesign_0_cycle1_af2pred (protein) GEEEKEKKKERFEEILKKAIEGKATKEEIEQAALDGVAYDGGEAVLALLKAYAEAKDPEVRKYLAQALALAARLTAAKLRA
value-observed: not found (inactive)
